Assay Protocol: Biodistribution in AR4-2J tumor-bearing mice
Assay type: in vivo
Condition Context: female, mouse, heart, iv, total radioactivity; AR4-2J tumor SCID mice, 4 h pi + co-injection of 50 nmol Tate; mean ± SD; read-out: Heart uptake, blocked
Quantity Name: tissue uptake at 4 h (%ID/g)
Return type: number; implicit unit %ID/g.

Query string: # tissue uptake at 4 h lookup, item C[C@H](NC(=O)CN1CCN(CC(=O)O)CCN(CC(=O)O)CCN(CC(=O)O)CC1)C(=O)NCC(=O)N[C@H]1CSSC[C@@H](C(=O)O)NC(=O)[C@H](CO)NC(=O)[C@H]([C@@H](C)O)NC(=O)[C@H](Cc2ccccc2)NC(=O)[C@H]([C@@H](C)O)NC(=O)[C@H](CCCCN)NC(=O)[C@@H](Cc2c[nH]c3ccccc23)NC(=O)[C@H](Cc2ccccc2)NC(=O)[C@H](Cc2ccccc2)NC(=O)[C@H](CC(N)=O)NC(=O)[C@H](CCCCN)NC1=O [[^111In]AT2S, metal not drawn]
Result string: 0.17

---

Assay Protocol: Biodistribution in HEK293-hsst3+ tumor-bearing mice
Format: in vivo
Condition Context: mouse, iv, 10 pmol, total radioactivity; HEK293-hsst3+ tumor SCID mice, 4 h pi; mean ± SD; read-out: Tumor uptake
Quantity Name: tissue uptake at 4 h (%ID/g)
Return type: number; implicit unit %ID/g.

Query string: # tissue uptake at 4 h lookup, item C[C@H](NC(=O)CN1CCN(CC(=O)O)CCN(CC(=O)O)CCN(CC(=O)O)CC1)C(=O)NCC(=O)N[C@H]1CSSC[C@@H](C(=O)O)NC(=O)[C@H](CO)NC(=O)[C@H]([C@@H](C)O)NC(=O)[C@H](Cc2ccccc2)NC(=O)[C@H]([C@@H](C)O)NC(=O)[C@H](CCCCN)NC(=O)[C@@H](Cc2c[nH]c3ccccc23)NC(=O)[C@H](Cc2ccccc2)NC(=O)[C@H](Cc2ccccc2)NC(=O)[C@H](CC(N)=O)NC(=O)[C@H](CCCCN)NC1=O [[^111In]AT2S, metal not drawn]
Result string: 1.24

---

Assay Protocol: Biodistribution in HEK293-hsst2A+ tumor-bearing mice
Format: in vivo
Condition Context: mouse, femur, iv, 10 pmol, total radioactivity; HEK293-hsst2A+ tumor SCID mice, 4 h pi; mean ± SD; read-out: Femur uptake
Quantity Name: tissue uptake at 4 h (%ID/g)
Return type: number; implicit unit %ID/g.

Query string: # tissue uptake at 4 h lookup, item C[C@H](NC(=O)CN1CCN(CC(=O)O)CCN(CC(=O)O)CCN(CC(=O)O)CC1)C(=O)NCC(=O)N[C@H]1CSSC[C@@H](C(=O)O)NC(=O)[C@H](CO)NC(=O)[C@H]([C@@H](C)O)NC(=O)[C@H](Cc2ccccc2)NC(=O)[C@H]([C@@H](C)O)NC(=O)[C@H](CCCCN)NC(=O)[C@@H](Cc2c[nH]c3ccccc23)NC(=O)[C@H](Cc2ccccc2)NC(=O)[C@H](Cc2ccccc2)NC(=O)[C@H](CC(N)=O)NC(=O)[C@H](CCCCN)NC1=O [[^111In]AT2S, metal not drawn]
Result string: 0.24

---

Assay Protocol: Biodistribution in HEK293-hsst2A+ tumor-bearing mice
Assay type: in vivo
Condition Context: mouse, stomach, iv, total radioactivity; HEK293-hsst2A+ tumor SCID mice, 4 h pi + co-injection of 35 nmol DP2; mean ± SD; read-out: Stomach uptake, blocked
Quantity Name: tissue uptake at 4 h (%ID/g)
Return type: number; implicit unit %ID/g.

Query string: # tissue uptake at 4 h lookup, item C[C@H](NC(=O)CN1CCN(CC(=O)O)CCN(CC(=O)O)CCN(CC(=O)O)CC1)C(=O)NCC(=O)N[C@H]1CSSC[C@@H](C(=O)O)NC(=O)[C@H](CO)NC(=O)[C@H]([C@@H](C)O)NC(=O)[C@H](Cc2ccccc2)NC(=O)[C@H]([C@@H](C)O)NC(=O)[C@H](CCCCN)NC(=O)[C@@H](Cc2c[nH]c3ccccc23)NC(=O)[C@H](Cc2ccccc2)NC(=O)[C@H](Cc2ccccc2)NC(=O)[C@H](CC(N)=O)NC(=O)[C@H](CCCCN)NC1=O [[^111In]AT2S, metal not drawn]
Result string: 1.29
